Recorded PGI d12 (relative PGI release) for the following compounds
System: E. multilocularis metacestode vesicles
Experiment Summary: Phosphoglucose isomerase (PGI) release assay (damage-marker release) on metacestode vesicles
Type: cell-based, Echinococcus multilocularis
Test Settings: overview screen, 10 μM, singlets, 12 days, relative to 0.1 % Triton X-100, DMSO subtracted
Method: In order to quantify the drug-induced damage on whole metacestode vesicles, phosphoglucose isomerase (PGI) assay was performed as described previously ([Stadelmann et al., 2010]) with few adaptations published recently ([Kaethner et al., 2023]). […] PGI activity in the supernatants was measured on a HIDEX Sense microplate reader (Hidex, Turku, Finland). […] IC50 values were calculated applying the 3 parameter Weibull type 1 in R for each of the three independent experiments ([Ritler et al., 2020]).
Give the number; % is assumed, so skip it.

Below are worked cases with known answers.
[[record]]
compound = "C=CCN(C(=O)OCc1ccc([N+](=O)[O-])cc1)C1CCN(CC[C@](C)(CN(C)S(=O)(=O)c2ccccc2)c2ccccc2)CC1"
test_readout = "PGI d12 (relative PGI release)"
value_reported = 3.53

[[record]]
compound = "COc1ccc(CNC(=O)C2CCN(C(C)c3cccc4ccccc34)CC2)cc1 (stereo not drawn)"
test_readout = "PGI d12 (relative PGI release)"
value_reported = -0.9153

[[record]]
compound = "CS(=O)(=O)c1ccc(Oc2ccc(Cl)cc2)cc1"
test_readout = "PGI d12 (relative PGI release)"
value_reported = -18.6197

[[record]]
compound = "C[C@H](c1cccc2ccccc12)N(C)Cc1ccccc1"
test_readout = "PGI d12 (relative PGI release)"
value_reported = -21.1471

[[record]]
compound = "O=C(O)c1ccc(-c2ccc(O[C@H]3O[C@H](CO)[C@@H](O)[C@H](O)[C@@H]3O)cc2)cc1"
test_readout = "PGI d12 (relative PGI release)"
value_reported = -1.296

[[record]]
compound = "CC[C@H]1OC(=O)[C@H](C)[C@@H](O[C@H]2C[C@@](C)(OC)[C@@H](O)[C@H](C)O2)[C@H](C)[C@@H](O[C@@H]2O[C@H](C)C[C@H](N(C)C)[C@H]2O)[C@](C)(O)C[C@@H](C)C(=O)[C@H](C)[C@@H](O)[C@]1(C)O"
test_readout = "PGI d12 (relative PGI release)"
value_reported = -21.4001


Incoming: Reported PGI d12 (relative PGI release), compound C[C@H](NC(=O)C(=O)Nc1ccccc1C(C)(C)C)C(=O)N[C@@H](CC(=O)O)C(=O)COc1c(F)c(F)cc(F)c1F : ____
Outgoing: -19.0747

Incoming: # get_value(readout='PGI d12 (relative PGI release)', item= CCN(CC)S(=O)(=O)c1ccc(Cl)c(C(=O)Nc2sc3c(c2C#N)CCCC3)c1 )
Outgoing: 3.142

Incoming: I'd like to know its PGI d12 (relative PGI release). The compound in question is Cc1cccc(CC(=O)N[C@H]2CCOC2=O)c1
Outgoing: 1.447

Incoming: What does the record list as PGI d12 (relative PGI release) for C[N+]1(C)CCCC(OC(=O)C(O)(c2ccccc2)c2ccccc2)C1 (stereo not drawn) ?
Outgoing: -4.73

Incoming: Recorded PGI d12 (relative PGI release) of O=C(O)c1ccc(-n2nc(-c3ccccc3O)nc2-c2ccccc2O)cc1 , please.
Outgoing: -24.5374

Incoming: Look up PGI d12 (relative PGI release) for this compound: CN(Cc1ccc(C(C)(C)C)cc1)Cc1cccc2ccccc12.Cl
Outgoing: -24.2411

Incoming: So what's the measured PGI d12 (relative PGI release) for this one? CCc1oc2ccccc2c1C(=O)c1ccc(O)cc1
Outgoing: 11.8922

Incoming: For NC(=O)[C@@H]1CC[C@@H]2CN1C(=O)N2OS(=O)(=O)O , what is its reported PGI d12 (relative PGI release)?
Outgoing: -13.4159

Incoming: Reported PGI d12 (relative PGI release) for CC[C@H](NC(=O)[C@H](C)NC)C(=O)N1C[C@@H](O)C[C@H]1Cc1c(-c2[nH]c3cc(F)ccc3c2C[C@@H]2C[C@H](O)CN2C(=O)[C@H](CC)NC(=O)[C@H](C)NC)[nH]c2cc(F)ccc12 : what is it?
Outgoing: -0.1165

====

Tested on: E. multilocularis metacestode vesicles
Experiment Summary: Phosphoglucose isomerase (PGI) release assay (damage-marker release) on metacestode vesicles
Format: cell-based, Echinococcus multilocularis
Test Settings: overview screen, 10 μM, singlets, 5 days, relative to 0.1 % Triton X-100, DMSO subtracted
Test Readout: PGI d5 (relative PGI release) (%)
Respond numerically; units are % and should not be typed.

Guide cases for PGI d5 (relative PGI release), answers given:
[[record]]
compound = "C[C@H](NC(=O)C(=O)Nc1ccccc1C(C)(C)C)C(=O)N[C@@H](CC(=O)O)C(=O)COc1c(F)c(F)cc(F)c1F [MMV1580794]"
target = "E. multilocularis metacestode vesicles"
test_readout = "PGI d5 (relative PGI release)"
unit = "%"
value_reported = -0.7921

[[record]]
compound = "c1ccc(-c2nnc3c4ccccc4c(N4CCNCC4)nn23)cc1 [MMV1581551]"
target = "E. multilocularis metacestode vesicles"
test_readout = "PGI d5 (relative PGI release)"
unit = "%"
value_reported = -2.787

[[record]]
compound = "O=C(O)C(Cc1c[nH]c2ccccc12)N1C(=O)c2ccccc2C1=O (stereo not shown) [MMV452821]"
target = "E. multilocularis metacestode vesicles"
test_readout = "PGI d5 (relative PGI release)"
unit = "%"
value_reported = 1.873


Incoming: Need PGI d5 (relative PGI release), item O=S(=O)(Nc1cccc2cccnc12)c1ccccc1 [MMV1578890]
Outgoing: 53.5139

====

Tested on: E. multilocularis metacestode vesicles
Experiment Summary: Phosphoglucose isomerase (PGI) release assay (damage-marker release) on metacestode vesicles
Format: cell-based, Echinococcus multilocularis
Test Settings: overview screen, 10 μM, singlets, 12 days, relative to 0.1 % Triton X-100, DMSO subtracted
Test Readout: PGI d12 (relative PGI release) (%)
Your answer is read as %, so omit the unit and give the number.

[[record]]
compound = "COc1cc(Cc2cc(N)nc(N)n2)cc(OC)c1OC"
value_reported = 19.1796

[[record]]
compound = "Cn1cc(NC(=O)c2cc(NC(=O)c3ccc(/C=C/c4cnc5ccccc5c4)cc3)cn2C)cc1C(=O)NCCN1CCOCC1"
value_reported = 21.1965


Incoming: Given the entry O=C(c1ccccc1)N1CCN(c2ccccc2NC(=O)C(Cl)(Cl)Cl)CC1 , report its measured PGI d12 (relative PGI release).
Outgoing: -4.23

====

Test system: E. multilocularis metacestode vesicles
Experiment Summary: Metacestode vesicle viability assay (ATP, CellTiter-Glo)
Format: cell-based, Echinococcus multilocularis
Test Settings: overview screen, 10 μM, singlets, 12 days, relative to DMSO control
Quick list: Viability d12 (relative viability) per entry.
// return numeric value only (unit: %, not printed)

Incoming: Reported Viability d12 (relative viability) for CONC(=N)c1ccc(-c2ccc(-c3ccc(C(=N)NOC)cc3)o2)cc1 [MMV000059] : what is it?
Outgoing: 226.694

Incoming: Bench note: what Viability d12 (relative viability) did Cn1cc(NC(=O)c2cc(NC(=O)c3ccc(/C=C/c4cnc5ccccc5c4)cc3)cn2C)cc1C(=O)NCCN1CCOCC1 [MMV1634391] show?
Outgoing: 70.2948

Incoming: May I ask what Viability d12 (relative viability) has been recorded for CCc1nc2ccccn2c1C(=O)NCc1ccccc1 [MMV1663457] ?
Outgoing: 46.6749

Incoming: Which Viability d12 (relative viability) reading was recorded for the molecule O=C(O)c1cc(-c2ccc(Br)cc2)nc2ccc(Cl)cc12 [MMV247764] ?
Outgoing: 115.677

Incoming: // lookup Viability d12 (relative viability) for O=S(=O)(NCB(O)O)c1ccc(-c2nnn[nH]2)cc1C(F)(F)F [MMV1782411]
Outgoing: 79.3081

Incoming: Fill in: Viability d12 (relative viability) of O=c1oc2ccc(Br)cc2cc1CSc1ncc[nH]1 [MMV1782105] is ___
Outgoing: 107.746

Incoming: Any idea what Viability d12 (relative viability) was measured for Cc1[nH]c2ccccc2c1CCNCc1ccc(/C=C/C(=O)NO)cc1 [MMV010036] ?
Outgoing: 57.5391

Incoming: Given COc1cc(Cc2cc(N)nc(N)n2)cc(OC)c1OC [MMV1579846] , state its recorded Viability d12 (relative viability).
Outgoing: 26.7191

Incoming: Which Viability d12 (relative viability) value is on record for Oc1c(C(Nc2ccccn2)c2ccccc2)ccc2cccnc12 (stereo not shown) [MMV565773] ?
Outgoing: 113.31

Incoming: Could you share which Viability d12 (relative viability) value was measured for O=C(/C=C\n1cnc(-c2cc(C(F)(F)F)cc(C(F)(F)F)c2)n1)NNc1ccccn1 [MMV1580493] ?
Outgoing: 159.076

Incoming: Any idea what Viability d12 (relative viability) was measured for CCCCCc1ccc(C(=O)NCCn2cc(CCCCCc3c[nH]c(N)n3)nn2)cc1.Cl [MMV1580847] ?
Outgoing: 106.136
